Reference source: patent US4808612A

Below, each entry is listed with its recorded inhibition at 1 µM.
- Test system: IL 1-induced release of neutral protease from rabbit articular chondrocytes
- EXPERIMENT_NOTES: Inhibition of the IL 1-induced release of neutral protease from rabbit articular chondrocytes (azocoll neutral protease assay)
- Assay type: cell-based
- ASSAY_SETUP: Oryctolagus cuniculus, Chondrocyte; Dose 1 μM; purified human IL 1; 24 h after IL 1 stimulation; read-out: % Inhibition (S.D)
The answer is to be given in %; state only the numeric part.

Observe how each entry below is paired with its result.
MOLECULE | UNITS_LABEL | READING
N#Cc1ccc(N2CCc3nc4ccc(Cl)cc4c(Cl)c3C2)cc1 [Example 9, hydrate] | % | 43
CCOC(=O)c1ccc(N2CCc3nc4ccccc4c(Cl)c3C2)cc1 | % | 43
Fc1ccc(N2CCc3nc4cc(Cl)ccc4c(Cl)c3C2)cc1 | % | 9

Would you kindly look at the next entry?
# input molecule: CS(=O)(=O)c1ccc(N2CCc3nc4cc(Cl)ccc4c(Cl)c3C2)cc1 ; wanted: its inhibition at 1 µM
66
